Each entry below carries its reported AC50.
target: UniProt P06401; format: functional
Sequence (P06401 whole entry): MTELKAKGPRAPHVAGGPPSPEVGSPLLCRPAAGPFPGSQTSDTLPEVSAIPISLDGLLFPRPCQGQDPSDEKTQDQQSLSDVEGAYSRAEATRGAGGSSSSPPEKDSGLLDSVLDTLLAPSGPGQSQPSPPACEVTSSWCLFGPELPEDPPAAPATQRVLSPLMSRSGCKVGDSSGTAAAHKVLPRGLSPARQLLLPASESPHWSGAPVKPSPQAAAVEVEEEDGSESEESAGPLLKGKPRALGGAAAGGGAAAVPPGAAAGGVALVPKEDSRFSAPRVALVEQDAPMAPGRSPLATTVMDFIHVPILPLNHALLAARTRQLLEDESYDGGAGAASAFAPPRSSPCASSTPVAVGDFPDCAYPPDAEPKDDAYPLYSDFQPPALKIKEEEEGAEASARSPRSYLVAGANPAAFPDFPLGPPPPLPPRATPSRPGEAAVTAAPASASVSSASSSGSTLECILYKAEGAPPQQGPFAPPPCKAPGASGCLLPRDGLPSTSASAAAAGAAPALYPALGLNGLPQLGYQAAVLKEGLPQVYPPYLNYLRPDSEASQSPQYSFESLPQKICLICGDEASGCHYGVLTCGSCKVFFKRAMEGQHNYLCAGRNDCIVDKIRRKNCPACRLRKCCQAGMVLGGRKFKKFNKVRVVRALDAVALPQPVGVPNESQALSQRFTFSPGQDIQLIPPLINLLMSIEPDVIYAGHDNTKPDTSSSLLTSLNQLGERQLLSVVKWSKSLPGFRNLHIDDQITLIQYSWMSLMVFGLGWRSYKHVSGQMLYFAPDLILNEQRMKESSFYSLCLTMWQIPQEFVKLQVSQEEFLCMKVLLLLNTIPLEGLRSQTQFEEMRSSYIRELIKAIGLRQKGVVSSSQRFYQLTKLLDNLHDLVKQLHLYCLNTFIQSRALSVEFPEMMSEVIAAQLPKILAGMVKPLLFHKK
reportedProperty: AC50

CCC(=O)O[C@]1(C(=O)CCl)[C@@H](C)C[C@H]2[C@@H]3CCC4=CC(=O)C=C[C@]4(C)[C@@]3(F)[C@@H](O)C[C@@]21C [CLOBETASOL PROPIONATE] ... 0.053 µM
CN(C)Cc1nnc2n1-c1ccc(Cl)cc1C(c1ccccc1)=NC2 [ADINAZOLAM] ... > 10 µM
CCOC(=O)c1ncn2c1CN(C)C(=O)c1cc(F)ccc1-2 [FLUMAZENIL] ... > 30 µM
Cc1ccccc1N1C(=O)c2cc(S(N)(=O)=O)c(Cl)cc2NC1C (centres undefined) [METOLAZONE] ... > 10 µM

---

biological target: Alpha-1A adrenergic receptor (Homo sapiens, UniProt P35348); type: functional, cell-based; further: assay procedure not described here
Sequence (P35348 whole entry): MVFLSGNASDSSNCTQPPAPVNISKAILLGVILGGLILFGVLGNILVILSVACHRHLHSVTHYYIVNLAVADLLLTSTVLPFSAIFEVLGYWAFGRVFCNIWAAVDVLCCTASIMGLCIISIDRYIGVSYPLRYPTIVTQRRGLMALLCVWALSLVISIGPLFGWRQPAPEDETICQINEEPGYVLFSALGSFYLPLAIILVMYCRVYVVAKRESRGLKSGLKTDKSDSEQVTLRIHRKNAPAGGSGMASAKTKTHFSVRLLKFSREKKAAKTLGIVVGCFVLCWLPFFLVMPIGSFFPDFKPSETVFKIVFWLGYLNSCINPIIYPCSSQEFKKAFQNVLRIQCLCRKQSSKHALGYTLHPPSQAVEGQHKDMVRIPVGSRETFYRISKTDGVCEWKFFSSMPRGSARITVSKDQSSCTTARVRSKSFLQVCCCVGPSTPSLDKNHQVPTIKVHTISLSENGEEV
reportedProperty: AC50

CC[N+](C)(CC)CCOC(=O)C(O)(c1ccccc1)C1CCCCC1 (configuration not stated) [OXYPHENONIUM] ... > 30 µM
CC(C)[C@@H]1CC[C@@H](C)C[C@H]1O [LEVOMENTHOL] ... > 30 µM
C[C@@H]1C[C@H]2[C@@H]3C[C@H](F)C4=CC(=O)C=C[C@]4(C)[C@@]3(F)[C@@H](O)C[C@]2(C)[C@@]1(OC(=O)c1ccco1)C(=O)SCF [FLUTICASONE FUROATE] ... > 30 µM
Cc1cc2c(cc1S(N)(=O)=O)S(=O)(=O)CCC2 ... > 30 µM
CC[C@H]1OC(=O)[C@H](C)[C@@H](O[C@H]2C[C@@](C)(OC)[C@@H](O)[C@H](C)O2)[C@H](C)[C@@H](O[C@@H]2O[C@H](C)C[C@H](N(C)C)[C@H]2O)[C@](C)(O)C[C@@H](C)[C@@H]2N[C@@H](COCCOC)O[C@H]([C@H]2C)[C@]1(C)O [DIRITHROMYCIN] ... > 30 µM
O=C1Cc2cc(CCN3CCN(c4nsc5ccccc45)CC3)c(Cl)cc2N1 [ZIPRASIDONE] ... 0.0179 µM
Cc1cn([C@H]2O[C@@H](CO)[C@H](O)[C@H]2F)c(=O)[nH]c1=O [CLEVUDINE] ... > 30 µM
CCCCc1oc2ccc(NS(C)(=O)=O)cc2c1C(=O)c1ccc(OCCCN(CCCC)CCCC)cc1 [DRONEDARONE] ... 5.92 µM
C=CC(=O)Nc1cccc(Oc2nc(Nc3ccc(N4CCN(C)CC4)cc3)nc3ccsc23)c1 [OLMUTINIB] ... 4.91 µM
Cc1ccc(C)c(OCCCC(C)(C)C(=O)O)c1 [GEMFIBROZIL] ... > 30 µM
COc1ccccc1OC1(C)OC(=O)c2ccccc2O1 (configuration not stated) [GUAIMESAL] ... > 30 µM
N[C@@H](Cc1ccccc1)C(=O)O [PHENYLALANINE] ... > 30 µM

---

Molecular target: Muscarinic acetylcholine receptor M1 (Homo sapiens, UniProt P11229); further: assay procedure not described here
Sequence (P11229 whole entry): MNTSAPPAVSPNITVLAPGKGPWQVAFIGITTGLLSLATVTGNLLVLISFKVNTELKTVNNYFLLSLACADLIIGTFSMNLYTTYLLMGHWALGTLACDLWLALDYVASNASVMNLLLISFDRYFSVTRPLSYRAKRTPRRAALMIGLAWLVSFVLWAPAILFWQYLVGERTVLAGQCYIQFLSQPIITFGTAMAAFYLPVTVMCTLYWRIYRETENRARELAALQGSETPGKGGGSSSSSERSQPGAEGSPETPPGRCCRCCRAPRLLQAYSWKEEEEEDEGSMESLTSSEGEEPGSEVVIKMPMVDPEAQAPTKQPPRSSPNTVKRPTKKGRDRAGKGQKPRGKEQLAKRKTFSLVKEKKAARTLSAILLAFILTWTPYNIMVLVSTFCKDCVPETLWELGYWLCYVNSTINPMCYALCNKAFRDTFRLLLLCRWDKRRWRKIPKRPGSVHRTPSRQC
Assay type: functional
reportedProperty: AC50

Oc1ccc(CCNCCCCCCNCCc2ccccc2)cc1O ... 14 µM
CCCCOc1ccc(C(=O)CCN2CCCCC2)cc1 ... > 10 µM
CC(=O)Nc1ccc(CC(=O)O)cc1 ... > 30 µM
CC(C)N(CCCCOCC(=O)O)c1cnc(-c2ccccc2)c(-c2ccccc2)n1 ... > 30 µM
COc1cc2[nH]c(C)c(CCN3CCN(c4ccccc4)CC3)c2cc1OC ... > 30 µM
CC(C)NC(=N)NC(=N)Nc1ccc(Cl)c(Cl)c1 ... > 30 µM
CC=CC1=C(C(=O)O)N2C(=O)[C@@H](NC(=O)[C@H](N)c3ccc(O)cc3)[C@H]2SC1 ... > 30 µM
CO/N=C(\C(=O)N[C@@H]1C(=O)N2C(C(=O)O)=CCS[C@H]12)c1csc(N)n1 ... > 30 µM
CCOC(=O)c1ccc(C#Cc2ccc3c(c2)C(C)(C)CCS3)nc1 ... > 10 µM
O=C1c2cccc3c2[C@H](CCC3)CN1[C@@H]1CN2CCC1CC2 ... > 30 µM
C=CC[N+]1([C@H]2C[C@H]3[C@@H]4CC[C@H]5C[C@H](O)[C@@H](N6CCOCC6)C[C@]5(C)[C@H]4CC[C@]3(C)[C@H]2OC(C)=O)CCCC1 ... > 30 µM
Clc1ccc(Cn2c(CN3CCCC3)nc3ccccc32)cc1 ... > 30 µM
CCCCCCCC(=O)CC[C@@H]1[C@@H](C/C=C\CCCC(=O)OC(C)C)[C@@H](O)C[C@H]1O ... > 30 µM
COc1cc(C)c(/C=C/C(C)=C/C=C/C(C)=C/C(=O)O)c(C)c1C ... > 10 µM
O=C1Cc2cc(CCN3CCN(c4nsc5ccccc45)CC3)c(Cl)cc2N1 ... > 10 µM
CC(=O)[C@H]1CC[C@H]2[C@@H]3C[C@H](C)C4=CC(=O)CC[C@]4(C)[C@H]3[C@@H](O)C[C@]12C ... > 10 µM
C=C1c2cccc(O)c2C(=O)C2=C(O)[C@]3(O)C(=O)C(C(N)=O)=C(O)[C@@H](N(C)C)[C@@H]3[C@@H](O)[C@H]12 ... > 10 µM

---

The next entries give measured AC50 for Adenosine receptor A1 (Homo sapiens).
reportedProperty: AC50

CC1(C)S[C@@H]2[C@H](NC(=O)C(C(=O)O)c3ccccc3)C(=O)N2[C@H]1C(=O)O (stereo not given in full) ... > 30 µM
S=P(N1CC1)(N1CC1)N1CC1 ... > 30 µM
CO/N=C(\C(=O)N[C@@H]1C(=O)N2C(C(=O)O)=CCS[C@H]12)c1csc(N)n1 ... > 30 µM
CC=CC1=C(C(=O)O)N2C(=O)[C@@H](NC(=O)[C@H](N)c3ccc(O)cc3)[C@H]2SC1 ... > 30 µM
CCOC(=O)c1ccc(N)cc1 ... > 10 µM
O=C(O)Cc1ccccc1Oc1ccc(Cl)cc1Cl ... > 30 µM
CNCCc1ccc(OC(=O)C(C)C)c(OC(=O)C(C)C)c1 ... > 30 µM
CCOc1cc([C@@H](CS(C)(=O)=O)N2C(=O)c3cccc(NC(C)=O)c3C2=O)ccc1OC ... > 30 µM
O=C(c1cc(Cc2n[nH]c(=O)c3ccccc23)ccc1F)N1CCN(C(=O)C2CC2)CC1 ... 11.9 µM
CCCN(CCC)S(=O)(=O)c1ccc(C(=O)O)cc1 ... > 10 µM

---

biological target: D(1A) dopamine receptor (Homo sapiens); assay type: functional, cell-based; further: assay procedure not described here
Sequence (P21728 whole entry): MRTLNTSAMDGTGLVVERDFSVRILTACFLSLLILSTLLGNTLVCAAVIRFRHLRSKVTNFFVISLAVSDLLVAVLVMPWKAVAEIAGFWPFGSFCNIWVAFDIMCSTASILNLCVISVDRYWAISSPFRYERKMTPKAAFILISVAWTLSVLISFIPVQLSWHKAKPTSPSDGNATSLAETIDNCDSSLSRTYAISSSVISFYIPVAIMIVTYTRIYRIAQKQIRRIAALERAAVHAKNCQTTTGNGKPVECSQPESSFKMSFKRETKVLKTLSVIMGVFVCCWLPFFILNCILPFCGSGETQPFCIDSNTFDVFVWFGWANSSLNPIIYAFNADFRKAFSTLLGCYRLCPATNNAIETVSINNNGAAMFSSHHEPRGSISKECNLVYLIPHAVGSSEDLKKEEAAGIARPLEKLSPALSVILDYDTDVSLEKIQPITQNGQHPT
Where a SMILES comes first, the peptide text is derived from it. [ ]: non-standard residue; d: D form. pGlu = O=C1CC[C@@H](C(=O)O)N1; Thz = O=C(O)[C@@H]1CSCN1
reportedProperty: AC50

CC(C)(C)NCC(O)c1ccccc1Cl (stereo not given) [TULOBUTEROL] ... > 30 µM
CCC1(c2ccc(N)cc2)CCC(=O)NC1=O (stereo not given) [AMINOGLUTETHIMIDE] ... > 30 µM
O=C1OC(OC(=O)c2cccnc2Nc2cccc(C(F)(F)F)c2)c2ccccc21 (stereo not given) [TALNIFLUMATE] ... > 30 µM
O=C1c2ccccc2C(=O)C1c1ccccc1 [PHENINDIONE] ... > 10 µM
CN[C@@H](C)[C@@H](O)c1ccccc1 [PSEUDOEPHEDRINE] ... > 10 µM
O=c1[nH]c2ccccc2n1CCCN1CCN(C(c2ccccc2)c2ccccc2)CC1 [OXATOMIDE] ... > 30 µM
Cn1c(=O)c2c(ncn2CCOC(=O)C(C)(C)Oc2ccc(Cl)cc2)n(C)c1=O [THEOFIBRATE] ... > 30 µM
O=C1Nc2ccc(Cl)cc2C(c2ccccc2Cl)=NC1O (stereo not given) [LORAZEPAM] ... > 30 µM
O=C1CC[C@@H](C(=O)N2CSC[C@H]2C(=O)O)N1 [PIDOTIMOD] ([pGlu]-[Thz]-OH) ... > 30 µM
CO/N=C(\C(=O)N[C@@H]1C(=O)N2C(C(=O)O)=CCS[C@H]12)c1csc(N)n1 [CEFTIZOXIME] ... > 30 µM
